TGT: PPARα (Homo sapiens)
Sequence (Q07869 178-468): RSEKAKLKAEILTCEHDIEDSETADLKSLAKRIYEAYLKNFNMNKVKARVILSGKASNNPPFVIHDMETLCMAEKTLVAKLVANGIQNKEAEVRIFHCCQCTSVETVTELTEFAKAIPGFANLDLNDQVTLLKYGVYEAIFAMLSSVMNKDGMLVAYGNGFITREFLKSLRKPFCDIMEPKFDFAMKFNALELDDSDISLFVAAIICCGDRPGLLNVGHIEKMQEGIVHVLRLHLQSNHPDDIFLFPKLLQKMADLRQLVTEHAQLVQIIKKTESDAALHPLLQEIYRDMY
MEASUREMENT_DESCRIPTION: HEK293 cell culture luciferase reporter assay, hPPARα
pEC50: −log10 of the molar value.
EXPERIMENTAL_ENDPOINT: pEC50

1) COC1=C(OC)C(=O)C(CCCCCCCCCCO)=C(C)C1=O 5.52

----------
TGT: hPPARγ (Homo sapiens, UniProt P37231)
Sequence (P37231 188-477 isoform P37231-2): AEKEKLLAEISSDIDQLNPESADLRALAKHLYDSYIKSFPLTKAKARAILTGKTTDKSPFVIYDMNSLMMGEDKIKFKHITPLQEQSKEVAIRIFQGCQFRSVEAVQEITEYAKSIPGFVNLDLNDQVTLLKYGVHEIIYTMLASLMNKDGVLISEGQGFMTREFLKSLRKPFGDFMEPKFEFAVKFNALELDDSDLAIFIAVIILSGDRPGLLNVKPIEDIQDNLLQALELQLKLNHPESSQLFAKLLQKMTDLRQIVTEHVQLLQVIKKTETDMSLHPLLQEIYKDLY
MEASUREMENT_DESCRIPTION: HEK293 cell culture luciferase reporter assay, hPPARγ
EXPERIMENTAL_ENDPOINT: EC50 (nM)

COMPOUND	EXPERIMENTAL_ENDPOINT	RESULT
COC1=C(OC)C(=O)C(CCCCCCCCCCO)=C(C)C1=O [Idebenone]	EC50	2500
